assay: NCI Yeast Anticancer Drug Screen. Data for the sgs1 mgt1 strain (AID 161);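 further: 0% = growth of cultures given vehicle only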; details: S. cerevisiae sgs1 mgt1 strain, active compounds read high; at 50.0 µM unless noted
This is part of a sample that, as a whole, favours compounds with a hit. Of some 79,000 tested, about 15% had one in any assay.
I'd be grateful if you could share measured growth inhibition for these entries.
Give the value in % but do not write % after it.

Need growth inhibition of CCCCCC(=O)OC(c1ccc(Cl)cc1)c1ccc(Cl)cc1 , thanks.
5.5

Look at this compound and give its reported growth inhibition. O=C1/C(=C/c2cccnc2)SC(=S)N1Cc1ccco1
-8.85

Query (compound): CN1C(=O)CCC1c1nc2ccccc2[nH]1 (stereo unspecified) ; field requested: growth inhibition
-3.05

Using the record for O=C(O)CCc1[nH]c(I)nc1I , report its growth inhibition.
5.3

Look up growth inhibition: COc1ccc(C2OC3=C(Nc4cc(C)c(C)cc4N3)C2=O)cc1 (stereo unspecified)
2.05

What does the data say about its growth inhibition? Entry: CC1C2=C(CC(C)(C)CC2=O)NC2=C1C(=O)CC(C)(C)C2
-8.55

----------
So I've got a bunch of molecules here, and I need their growth inhibition values.
experiment: NCI Yeast Anticancer Drug Screen. Data for the cln2 rad14 strain (AID 165);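 further: 0% = growth equal to vehicle treated cultures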; conditions: S. cerevisiae cln2 rad14 strain, active compounds read high; at 50.0 µM unless noted
Compounds without any hit were thinned out: in the full panel of roughly 79,000, 15% have a hit.
// note: answer is a bare numeric in %

growth inhibition lookup needed for Cc1ccc(S(=O)(=O)CCN2CCN(C)CC2)cc1 , thanks.
-26

Item under review: Cc1ccc(NC(=S)N2CCCC(C)C2)cc1C (stereo unspecified) . Reported growth inhibition?
-7.3

I'd like to know its growth inhibition. The molecule in question is CS(=O)(=O)OCCN(CCOS(C)(=O)=O)c1ccc(C=Nc2ccc(C(=O)O)c(O)c2)cc1
78.7

For the molecule shown here, COc1cc(C2CC(C)(Nc3ccccc3)Oc3cc4c(cc32)OCO4)cc(OC)c1OC (stereo unspecified) , give the reported growth inhibition.
4.95

Give the measured growth inhibition of CCOC(=O)c1[nH]c(=S)n(C)c1C(=O)OCC .
-33

For the molecule shown here, CN(C)C(=S)/N=c1\ssc(=S)n1Cc1ccccn1 , give the reported growth inhibition.
22.1

----------
test: NCI Yeast Anticancer Drug Screen. Data for the mlh1 rad18 strain (AID 175); conditions: S. cerevisiae mlh1 rad18 strain growth inhibition, active compounds read high; at 50.0 µM unless noted
The panel holds about 79,000 compounds, 15% with a hit somewhere; the sample as a whole holds those more often. Active and inactive are the calls of the source. No stated cut-off is given here; in the data, active means growth inhibition above about 70%; inactive means the rest.
experimental endpoint: growth inhibition

Which growth inhibition is reported for this compound? CCC(CN)C(F)(F)C(F)(F)C(F)(F)F (stereo not drawn)
6.05% (inactive)

Return reported growth inhibition; argument: Cc1ccc(S(=O)(=O)OC2CCSCC2)cc1
-4.8% (inactive)

Form field: reported growth inhibition of CCOC(=O)c1c(-c2ccc([N+](=O)[O-])cc2)cn(-c2ccc(OC)cc2)c1C
1% (inactive)

For the compound shown here, O=C1/C(=C/c2ccccc2)CCC2CCCCC12 (stereo not drawn) , give the reported growth inhibition.
14.4% (inactive)

Value lookup for growth inhibition; key = O=c1cc2ccc(Cl)cc2n[nH]1
4.5% (inactive)

Record request: growth inhibition value, item O=NN(CCCl)C(=O)Oc1ccccc1
-11.3% (inactive)

Look up growth inhibition for this compound: CC1(C)CC(O)CC(C)(C)N1
1.9% (inactive)

Which growth inhibition is listed for O=C1N=CN=C2C=CC(Cl)=C(I)C12 (stereo not drawn) ?
4.15% (inactive)

Could you tell me which growth inhibition is on file for C/C(=N/O)c1ccncc1 ?
-6.9% (inactive)

I would be grateful if you could share the reported growth inhibition for CC(=O)NNc1nc(C)c(C(=O)/C=C/c2ccc(NC(C)=O)cc2)s1 .
31.5% (inactive)

What measured growth inhibition goes with O=C(Cc1ccccc1)c1ccccc1C(=O)NCc1ccncc1 ?
-0.6% (inactive)

Looking for the measured growth inhibition of CCOC(=O)Nc1ccc(F)cc1C , can you help?
-1% (inactive)

// lookup growth inhibition for O=C(CCCN1CCC2(CC1)C(=NC1CCCCC1)NC(=O)N2c1ccccc1)c1ccc(F)cc1
-6.85% (inactive)

----------
test: NCI Yeast Anticancer Drug Screen. Data for the rad50 strain (AID 155);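 further: 0% = growth of vehicle-only cultures of the same strain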; conditions: S. cerevisiae rad50 strain growth inhibition; at 50.0 µM unless noted
Compounds without any hit were thinned out: in the full panel of roughly 79,000, 15% have a hit. The source made the active and inactive calls. Rule as the data show it: active = growth inhibition above about 70%; inactive = the rest.
Select the correct class. Options are active, inactive and nothing else.

Any idea what this test logged for COc1cc(CNc2ccccc2)ccc1O ?
inactive

Lab log entry: NC(=O)C1CC1 — outcome as called in the assay?
inactive

Please indicate how the test categorized O=Cc1ccc(OC(=O)Nc2ccc([N+](=O)[O-])cc2)cc1 .
inactive

What classification did CCOC(=O)C(Cc1ccc(Cl)cc1)(NC(C)=O)C(=O)OCC end up with in this test?
inactive

Test call, this compound: CC1CC(OCCO)CC(C)(C)C1 (stereo not drawn)
inactive

Hi, sorry to bother you, what did the test record for O=C1c2scc(-c3ccc(F)cc3)c2-n2cccc21 ?
inactive

Recorded test call requested for CC12CC(=O)OC1(C)C1CCC2C1 (stereo not drawn)
inactive

# outcome recorded in this test, key = CS/C(=N\c1nccs1)NC(=O)c1cccc(Cl)c1
inactive

Record request — test call for O=c1nc(NCc2ccco2)ccn1C1OC(CO)C(O)C1O (stereo not drawn)
inactive

I would be grateful if you could indicate the recorded call for CC1(C)COC2(CCCCC2)OC1 .
inactive

Hi, do you know how COc1cccc(NC(=O)NCCCl)c1OC came out in this test?
inactive

Hi, do you know how C/C(=N/NC(N)=S)c1ccc([N+](=O)[O-])cc1 came out in this test?
active

Given c1cc2c(cc1CSCc1c(CSCc3ccc4c(c3)OCO4)c(CSCc3ccc4c(c3)OCO4)c(CSCc3ccc4c(c3)OCO4)c(CSCc3ccc4c(c3)OCO4)c1CSCc1ccc3c(c1)OCO3)OCO2 , state the outcome it received in this test.
inactive

What did this assay record as the result for COc1cc(Br)c(CC(NC=O)c2ccc(OC)c(OC)c2OC)cc1OC (stereo not drawn) ?
inactive

Any idea what this test logged for CN(C)CCOC(=O)C1C2CC3OC(=O)C1C3C2 (stereo not drawn) ?
inactive

I would be grateful if you could indicate the recorded call for C=C1N(C=O)C(C)(C)N(O)C1(C)C .
inactive

Any idea what this test logged for CCC(CC)NC(CC)COC(=O)c1ccc(N)cc1 (stereo not drawn) ?
inactive

Recorded call for CC(C)C(=O)Nc1ccc(S(=O)(=O)Nc2ccc(N)cc2O)cc1 ?
inactive

Hello, I am checking results. What call was entered for O=C(O)c1c[nH]c2cc(OCc3ccc4ccccc4c3)ccc2c1=O ?
inactive

What is the recorded call for this compound in the test? Cc1ccc(C=NC23CC4CC(CC(C4)C2)C3)cc1
inactive

Each compound tested received a call. Report the one for CC(=O)OC[C@H](O)[C@@]1(O)CC[C@H]2[C@@H]3CCC4=CC(=O)C=C[C@]4(C)[C@H]3[C@@H](O)C[C@@]21C .
inactive

Would you mind telling me which call this test gave Nc1ccccc1SC1CC(=O)N(c2ccc3c(c2)OCO3)C1=O (stereo not drawn) ?
inactive

Recorded call for O=C(CCC(=O)Nc1ccccc1C(F)(F)F)N/N=C1\C(=N\NC(=O)CCC(=O)Nc2ccccc2C(F)(F)F)C(c2ccc3c(c2)OCO3)Oc2ccccc21 (stereo not drawn) ?
inactive

----------
Task for the reader: assign each of the following compounds its reported growth inhibition.
Assay: NCI Yeast Anticancer Drug Screen. Data for the bub3 strain (AID 167)
Settings: S. cerevisiae bub3 mutant strain, active compounds read high; at 50.0 µM unless noted
Procedure: Growth inhibition of yeast strains with defined genetic alterations is measured as a screen for potential anti-cancer activity. Selected strains with alterations in DNA damage repair or cell cycle control were exposed to compounds and growth inhibition was measured relative to vehicle treated controls. The strain used in this assay is bub3
This is part of a sample that, as a whole, favours compounds with a hit. Of some 79,000 tested, about 15% had one in any assay. Calls of active or inactive are those of the source. No stated cut-off is given here; in the data, active means growth inhibition above about 70%; inactive means the rest.

Name the recorded growth inhibition for CSCCCCC(N)C(=O)O (stereo not given) .
12.4% (inactive)

Value lookup for growth inhibition; key = CC1CCC(OC(=O)CCC2CCCCC2)CC1 (stereo not given)
-12.4% (inactive)

Report growth inhibition for O=C(C(/C=N/C(=S)NC1C(=O)Nc2ccccc21)=C(/O)c1ccccc1)c1ccccc1 (stereo not given) please.
21.7% (inactive)

Would you kindly share the measured growth inhibition for COc1cc2c(c3oc4c(O)cccc4c(=O)c13)CC(C(C)(O)CO)O2 (stereo not given) ?
-42.8% (inactive)

If you can, please state the reported growth inhibition value of Clc1ccc(OCC(COc2ccccc2)Oc2nc(-c3ccccc3)nc(-c3ccccc3)n2)cc1 (stereo not given) .
-8.6% (inactive)

For CCOC(=O)c1cc([N+](=O)[O-])cnc1C , what is its reported growth inhibition?
8.45% (inactive)

Returns the measured growth inhibition for the input compound. Input: O=[N+]([O-])c1ccc2c(c1)S(=O)c1ccccc1-2 (stereo not given)
-37.8% (inactive)

What does the record list as growth inhibition for CC(=O)C1=CCCCC1 ?
14.7% (inactive)

Tell me the measured growth inhibition of CCOC(=O)CN(c1ccccc1)c1nc(=[N+](C)C)ss1 , please.
1.35% (inactive)

I have this compound here, COC(=O)c1cc(Br)cc(Br)c1N , and I need its recorded growth inhibition.
3.6% (inactive)

What value of growth inhibition has been recorded for this entry: COc1ccc(C)cc1Sc1ccc([N+](=O)[O-])cc1C
8.95% (inactive)

Reported growth inhibition for CN1C(=O)N(C)C2(O)c3ccccc3C(=O)C12O (stereo not given) : what is it?
19.8% (inactive)

Form field: reported growth inhibition of O=S(=O)(O)c1ccc(N=Nc2ccc(O)cc2)cc1
3.7% (inactive)

Any idea what growth inhibition was measured for CCCCCCCCC(O)C#CC(O)CCCCCCCC (stereo not given) ?
-12.6% (inactive)

Can you share its growth inhibition? I mean this compound: COc1ccccc1OC(=O)c1ccc(Cl)cc1
1.35% (inactive)

# growth inhibition lookup, item Cc1cc(C)nc(NS(=O)(=O)c2ccc(NC(=O)c3ccc(Cl)c4c(Nc5ccc(S(=O)(=O)N=C(N)N)cc5)c5ccccc5nc34)cc2)n1
23.2% (inactive)

Would you kindly share the measured growth inhibition for COc1cccc(OC)c1NC(=O)C(=O)Nn1c(NNC(=O)c2ccncc2)nc2ccccc2c1=O ?
35% (inactive)

Return reported growth inhibition; argument: COC1CCC(OS(C)(=O)=O)C(C)O1 (stereo not given)
-38.7% (inactive)

Give the measured growth inhibition of Cc1nn(C(C)C(=O)N(C)C)c(Br)c1Br (stereo not given) .
-25.7% (inactive)

Fill blank: measured growth inhibition of the compound CCCCC1(CC)COC(=O)N(C)C1 (stereo not given) is ____.
18% (inactive)

Recorded growth inhibition for CCOC(=O)CCN(CCC(=O)OCC)N(C)C , please?
5.8% (inactive)

Query: growth inhibition; subject: CC(C)(C)OC(=O)/N=C/c1c(O)c2ccccc2oc1=O
-17.4% (inactive)

Returns the measured growth inhibition for the input compound. Input: CCOC(=O)N1CCc2cc(OC)c(OC)cc2C1Cc1ccc(OC)c(OC)c1 (stereo not given)
1.95% (inactive)

# input compound: CC(C)OC(=O)/C=C/CCCC1CCCCC1 ; wanted: its growth inhibition
18.7% (inactive)

Item under review: COc1cccc(/C=C/c2cnc3ccccc3n2)c1OC . Reported growth inhibition?
-6.7% (inactive)
